- Measurement Target: Metabotropic glutamate receptor 1 (Rattus norvegicus, UniProt P23385)
- Sequence (P23385 whole entry): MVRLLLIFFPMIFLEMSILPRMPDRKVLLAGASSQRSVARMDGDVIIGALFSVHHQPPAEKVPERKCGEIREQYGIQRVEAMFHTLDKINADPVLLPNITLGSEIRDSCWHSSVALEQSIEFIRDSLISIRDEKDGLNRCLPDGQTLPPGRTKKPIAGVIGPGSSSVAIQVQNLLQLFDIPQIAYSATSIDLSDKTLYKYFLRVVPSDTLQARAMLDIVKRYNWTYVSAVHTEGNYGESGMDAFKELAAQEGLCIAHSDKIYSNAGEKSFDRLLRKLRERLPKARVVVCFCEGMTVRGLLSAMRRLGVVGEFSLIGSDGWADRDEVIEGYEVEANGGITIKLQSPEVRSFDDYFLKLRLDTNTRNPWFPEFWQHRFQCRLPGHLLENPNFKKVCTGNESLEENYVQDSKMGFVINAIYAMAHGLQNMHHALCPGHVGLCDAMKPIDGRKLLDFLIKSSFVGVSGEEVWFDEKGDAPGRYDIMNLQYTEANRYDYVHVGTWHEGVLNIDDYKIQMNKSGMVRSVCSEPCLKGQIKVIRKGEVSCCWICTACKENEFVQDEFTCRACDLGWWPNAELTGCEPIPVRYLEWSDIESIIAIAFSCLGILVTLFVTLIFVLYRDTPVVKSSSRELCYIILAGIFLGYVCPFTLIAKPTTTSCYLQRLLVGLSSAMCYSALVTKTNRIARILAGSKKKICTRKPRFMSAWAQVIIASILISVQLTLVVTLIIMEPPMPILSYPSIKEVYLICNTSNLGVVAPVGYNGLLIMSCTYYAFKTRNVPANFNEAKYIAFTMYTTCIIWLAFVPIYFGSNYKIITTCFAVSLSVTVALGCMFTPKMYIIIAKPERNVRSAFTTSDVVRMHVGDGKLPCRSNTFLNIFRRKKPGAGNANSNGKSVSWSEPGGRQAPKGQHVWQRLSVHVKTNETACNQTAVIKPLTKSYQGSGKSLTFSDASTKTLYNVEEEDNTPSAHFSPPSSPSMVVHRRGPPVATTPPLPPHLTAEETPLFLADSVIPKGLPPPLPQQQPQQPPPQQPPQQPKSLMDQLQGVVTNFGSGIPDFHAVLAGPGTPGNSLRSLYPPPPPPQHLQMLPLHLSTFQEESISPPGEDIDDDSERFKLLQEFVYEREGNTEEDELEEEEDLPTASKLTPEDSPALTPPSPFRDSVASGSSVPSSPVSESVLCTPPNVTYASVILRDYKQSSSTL
- Assay Text: Activity at rat mGluR1 receptor measured as intracellular calcium concentration in HEK293 cells
pEC50: −log10 of the molar value.
Measured Endpoint: pEC50

Ask: Data request, read-out pEC50, for N[C@@]1(C(=O)O)C[C@@H](C(=O)O)N(C(=O)/C=C/C(=O)O)C1
Result: < 2.30

----------
- Measurement Target: UniProt:P35400
- Sequence (P35400 whole entry): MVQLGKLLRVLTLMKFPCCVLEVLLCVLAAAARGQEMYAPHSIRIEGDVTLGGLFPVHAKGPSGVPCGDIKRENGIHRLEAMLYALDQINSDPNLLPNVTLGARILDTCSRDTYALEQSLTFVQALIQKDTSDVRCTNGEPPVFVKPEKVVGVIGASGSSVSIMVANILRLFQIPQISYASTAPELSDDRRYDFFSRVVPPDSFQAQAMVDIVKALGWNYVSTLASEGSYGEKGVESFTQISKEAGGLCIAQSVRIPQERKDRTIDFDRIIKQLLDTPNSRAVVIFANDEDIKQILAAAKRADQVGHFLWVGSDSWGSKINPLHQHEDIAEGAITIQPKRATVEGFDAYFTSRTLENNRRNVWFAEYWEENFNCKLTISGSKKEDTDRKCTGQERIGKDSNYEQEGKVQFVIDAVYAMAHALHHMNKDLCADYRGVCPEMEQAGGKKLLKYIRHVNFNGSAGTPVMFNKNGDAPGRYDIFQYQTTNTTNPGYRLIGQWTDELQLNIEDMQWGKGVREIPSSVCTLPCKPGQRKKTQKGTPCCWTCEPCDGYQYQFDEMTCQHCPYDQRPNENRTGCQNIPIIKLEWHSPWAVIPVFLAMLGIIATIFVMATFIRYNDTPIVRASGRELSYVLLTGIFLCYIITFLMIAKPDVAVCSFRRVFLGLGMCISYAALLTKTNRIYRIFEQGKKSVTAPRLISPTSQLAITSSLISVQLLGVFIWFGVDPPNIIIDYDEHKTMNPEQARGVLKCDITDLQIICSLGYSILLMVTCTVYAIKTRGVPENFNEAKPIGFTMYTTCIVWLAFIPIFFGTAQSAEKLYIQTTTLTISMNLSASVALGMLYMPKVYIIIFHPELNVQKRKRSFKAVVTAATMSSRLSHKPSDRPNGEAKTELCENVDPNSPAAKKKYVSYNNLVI
- Assay Text: Activity at rat mGluR7 receptor measured as intracellular calcium concentration in HEK293 cells
Measured Endpoint: pEC50
On this scale, pEC50 is minus log10 of a concentration expressed in M (mol/L).

Ask: # lookup: pEC50 of N[C@@]1(C(=O)O)C[C@H](C(=O)O)[C@H](C(=O)O)C1
Result: 2.92

----------
- Measurement Target: Metabotropic glutamate receptor 6 (Rattus norvegicus, UniProt P35349)
- Sequence (P35349 whole entry): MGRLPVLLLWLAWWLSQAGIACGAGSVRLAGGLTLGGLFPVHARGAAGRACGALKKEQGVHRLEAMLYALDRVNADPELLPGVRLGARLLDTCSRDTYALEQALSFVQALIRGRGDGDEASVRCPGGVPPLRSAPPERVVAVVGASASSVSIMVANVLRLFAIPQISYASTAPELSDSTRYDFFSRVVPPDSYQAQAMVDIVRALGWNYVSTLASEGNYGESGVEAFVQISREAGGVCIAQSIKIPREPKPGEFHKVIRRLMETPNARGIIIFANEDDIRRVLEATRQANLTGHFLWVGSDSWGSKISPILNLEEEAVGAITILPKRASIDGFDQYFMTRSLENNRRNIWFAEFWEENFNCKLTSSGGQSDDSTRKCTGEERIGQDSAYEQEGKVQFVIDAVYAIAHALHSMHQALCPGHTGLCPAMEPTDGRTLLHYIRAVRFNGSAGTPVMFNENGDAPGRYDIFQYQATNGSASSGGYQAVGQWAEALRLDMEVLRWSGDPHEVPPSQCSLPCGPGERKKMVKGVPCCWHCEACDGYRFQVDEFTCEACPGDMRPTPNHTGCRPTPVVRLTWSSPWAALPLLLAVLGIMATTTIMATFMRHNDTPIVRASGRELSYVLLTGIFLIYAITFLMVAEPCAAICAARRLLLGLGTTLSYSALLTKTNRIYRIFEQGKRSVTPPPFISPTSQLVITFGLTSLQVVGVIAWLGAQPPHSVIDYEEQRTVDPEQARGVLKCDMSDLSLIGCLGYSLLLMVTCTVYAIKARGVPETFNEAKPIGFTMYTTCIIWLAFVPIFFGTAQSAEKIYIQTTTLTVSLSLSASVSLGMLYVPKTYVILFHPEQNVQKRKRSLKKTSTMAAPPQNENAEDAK
- Assay Text: Activity at rat mGluR6 receptor measured as intracellular calcium concentration in HEK293 cells
- Format: functional, cell-based
Measured Endpoint: pEC50
Schema: pEC50 number; meaning minus log10 of the concentration expressed in molar units.

Ask: # returns recorded pEC50 (system: Metabotropic glutamate receptor 6 (Rattus norvegicus, UniProt P35349)) for N[C@@]1(C(=O)O)C[C@@H](C(=O)O)N(C(=O)/C=C/C(=O)O)C1
Result: 3.42

Ask: Give Metabotropic glutamate receptor 6 (Rattus norvegicus, UniProt P35349) pEC50 for N[C@@]1(C(=O)O)C[C@H](C(=O)O)[C@H](C(=O)O)C1
Result: 4.74
